TARGET OF ASSAY: 6xHis-TLX ligand-binding domain (UniProt Q9Y466 155-385)
Sequence (Q9Y466 155-385): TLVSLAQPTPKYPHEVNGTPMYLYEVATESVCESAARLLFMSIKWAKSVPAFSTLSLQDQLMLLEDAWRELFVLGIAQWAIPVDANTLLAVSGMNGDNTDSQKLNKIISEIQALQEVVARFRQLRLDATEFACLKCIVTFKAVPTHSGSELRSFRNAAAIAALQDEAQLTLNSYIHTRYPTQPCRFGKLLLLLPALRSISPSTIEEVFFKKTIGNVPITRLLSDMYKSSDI
VALUE TYPE: EC50 (µM)

>  <BINDER>
LTERHKILHRLLQEGSPSD [NCOA1-II peptide (competitor in the ALPHA competition experiment)]

>  <NUMERIC READOUT>
3.3

$$$$

Attribution: paper PMC9060471
